Every entry's value here was drawn from patent US20240148821A1.

Biological target: protein-protein interaction between Kras and SOS1 (biotin-tagged human Kras loaded with GDP, His-tagged human SOS1) (Homo sapiens (Human), UniProt P01116, G12D)
Assay: Protein-protein interaction inhibition between Kras and SOS1 (KrasG12D-SOS PPI) using AlphaScreen
Assay type: biochemical
Conditions: AlphaScreen; biotin-tagged human Kras loaded with GDP, His-tagged human SOS1; read-out: KRAS G12D-SOS PPI IC50
Numbered stars: 1 amine (or outer) side, 2 acyl side, 3 side chain; on linkers, the order of the positions; unused ones are H or OH. Bridge positions count the residues as written; N and C are the ends. Square brackets hold non-standard residues; d marks the D form. Peptide text beside a SMILES is read from it. * marks the point of attachment. hPhe(3-Cl-4-CF3) = N[C@@H](CCc1ccc(C(F)(F)F)c(Cl)c1)C(=O)O; hPhe(3-F,4-CF3) = N[C@@H](CCc1ccc(C(F)(F)F)c(F)c1)C(=O)O; NMedβ3hAla = C[C@H](CC(=O)[*:2])N(C)[*:1]; NGly(CH2(3-pyridyl)) = O=C(O)CNCc1cccnc1; NMeCha = CN[C@@H](CC1CCCCC1)C(=O)O; NMeChg = CN[C@H](C(=O)O)C1CCCCC1; NMeI = CC[C@H](C)[C@H](NC)C(=O)O; NMeD = CN[C@@H](CC(=O)O)C(=O)O; NMeL = CN[C@@H](CC(C)C)C(=O)O; NMeA = CN[C@@H](C)C(=O)O; Piperidide = C1CCN(*)CC1; Ac5c = NC1(C(=O)O)CCCC1; Aze = O=C(O)[C@@H]1CCN1; Sar = CNCC(=O)O
Metric Name: IC50 (nM)
Numbers only; they are read as nM.

- Compound: "CC[C@H](C)[C@@H]1NC(=O)[C@H](CC(C)C)N(C)C(=O)C[C@@H](C)N(C)C(=O)[C@H]([C@@H](C)CC)N(C)C(=O)C2(CCCC2)NC(=O)[C@@H]2CCCN2C(=O)[C@H](CCc2ccc(C(F)(F)F)c(F)c2)NC(=O)CN(C)C(=O)[C@H](CC2CCCCC2)N(C)C(=O)[C@@H]2CCN2C(=O)[C@H](C)N(C)C1=O [Compound 859] (cyclo([Ac5c][NMeI][NMedβ3hAla][NMeL]I[NMeA][Aze][NMeCha][Sar][hPhe(3-F,4-CF3)]P))"
  Uom: "nM"
  IC50: 64

Query string: For the compound shown here, CC[C@H](C)[C@@H]1NC(=O)[C@H](CC(C)C)N(C)C(=O)C[C@@H](C(=O)N2CCCCC2)N(C)C(=O)[C@H](C2CCCCC2)N(C)C(=O)C2(CCCC2)NC(=O)CN(Cc2cccnc2)C(=O)[C@H](CCc2ccc(C(F)(F)F)c(Cl)c2)NC(=O)CN(C)C(=O)[C@H](CC2CCCCC2)N(C)C(=O)CN(C)C(=O)CN(C)C1=O [Compound 2026] ([NMeL]I[Sar][Sar][NMeCha][Sar][hPhe(3-Cl-4-CF3)][NGly(CH2(3-pyridyl))][Ac5c][NMeChg][NMeD]-Piperidide; lactam N-11 (inferred); C-terminus assumed) , give the reported IC50.
Result string: 1.3

###

Target: protein-protein interaction between Kras and SOS1 (biotin-tagged human Kras loaded with GDP, His-tagged human SOS1) (Homo sapiens (Human), UniProt P01116, G12D)
Assay: Protein-protein interaction inhibition between Kras and SOS1 (KrasG12D-SOS PPI) using AlphaScreen
Type: biochemical
Settings: AlphaScreen; biotin-tagged human Kras loaded with GDP, His-tagged human SOS1; read-out: KRAS G12D-SOS PPI IC50
Bridge positions count the residues as written; N and C are the ends. Square brackets hold non-standard residues; d marks the D form. Peptide text beside a SMILES is read from it. * marks the point of attachment. hPhe(3-Cl-4-CF3) = N[C@@H](CCc1ccc(C(F)(F)F)c(Cl)c1)C(=O)O; 3Oxa8azabicyclo(3.2.1)octane = C1CC2COCC1N2*; NMeGly(cPent) = CN[C@H](C(=O)O)C1CCCC1; NMeCha = CN[C@@H](CC1CCCCC1)C(=O)O; NMeD = CN[C@@H](CC(=O)O)C(=O)O; NMeL = CN[C@@H](CC(C)C)C(=O)O; NMeV = CN[C@H](C(=O)O)C(C)C; NMeS = CN[C@@H](CO)C(=O)O; NMeA = CN[C@@H](C)C(=O)O; Piperidide = C1CCN(*)CC1; Ac5c = NC1(C(=O)O)CCCC1; Aze = O=C(O)[C@@H]1CCN1; Abu = CC[C@H](N)C(=O)O; NEtG = CCNCC(=O)O; Sar = CNCC(=O)O; Propyl = CCC*
Metric Name: IC50
Form entry: enter the amount, then its unit.

- Molecule: "CCCOC[C@H]1C(=O)N(CC)CC(=O)N[C@@H](CCc2ccc(C(F)(F)F)c(Cl)c2)C(=O)N2CCC[C@H]2C(=O)NC2(CCCC2)C(=O)N(C)[C@@H](C2CCCC2)C(=O)N(C)[C@H](C(=O)N2C3CCC2COC3)CC(=O)N(C)[C@@H](CC(C)C)C(=O)N[C@@H]([C@@H](C)CC)C(=O)N(C)[C@@H](C)C(=O)N2CC[C@H]2C(=O)N1C [Compound 1338] ([NMeL]I[NMeA][Aze][NMeS](Propyl)[NEtG][hPhe(3-Cl-4-CF3)]P[Ac5c][NMeGly(cPent)][NMeD]-{3Oxa8azabicyclo(3.2.1)octane}; lactam N-11)"
  Result: "17 nM"

Attention now turns to another entry.
Query string: For the molecule shown here, CC[C@@H]1NC(=O)[C@H](CC(C)C)N(C)C(=O)C[C@@H](C(=O)N2CCCCC2)N(C)C(=O)[C@H](C(C)C)N(C)C(=O)C2(CCCC2)NC(=O)[C@@H]2CCCN2C(=O)[C@H](CCc2ccc(C(F)(F)F)c(Cl)c2)NC(=O)CN(C)C(=O)[C@H](CC2CCCCC2)N(C)C(=O)[C@@H]2CCN2C(=O)[C@H](C)N(C)C1=O [Compound 1760] ([NMeL][Abu][NMeA][Aze][NMeCha][Sar][hPhe(3-Cl-4-CF3)]P[Ac5c][NMeV][NMeD]-Piperidide; lactam N-11) , give the reported IC50.
Result string: 32 nM

###

Quick list: pIC50 per entry.
Target: protein-protein interaction between Kras and SOS1 (biotin-tagged human Kras loaded with GDP, His-tagged human SOS1) (Homo sapiens (Human), UniProt P01116, G12D)
Test: Protein-protein interaction inhibition between Kras and SOS1 (KrasG12D-SOS PPI) using AlphaScreen;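 also: kras produced in E. coli, Ni-coupled donor beads and streptavidin acceptor beads, excitation 680 nm with emission detected at 520–620 nm via singlet oxygen transfer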
Type: biochemical
Conditions: AlphaScreen; biotin-tagged human Kras loaded with GDP, His-tagged human SOS1; read-out: KRAS G12D-SOS PPI IC50
Bridge positions count the residues as written; N and C are the ends. Square brackets hold non-standard residues; d marks the D form. Peptide text beside a SMILES is read from it. * marks the point of attachment. hPhe(3-Cl-4-CF3) = N[C@@H](CCc1ccc(C(F)(F)F)c(Cl)c1)C(=O)O; NMePhe(4-Me) = CN[C@@H](Cc1ccc(C)cc1)C(=O)O; NMeCha = CN[C@@H](CC1CCCCC1)C(=O)O; NMeI = CC[C@H](C)[C@H](NC)C(=O)O; NMeD = CN[C@@H](CC(=O)O)C(=O)O; NMeL = CN[C@@H](CC(C)C)C(=O)O; NMeV = CN[C@H](C(=O)O)C(C)C; NMeA = CN[C@@H](C)C(=O)O; Piperidide = C1CCN(*)CC1; Ac5c = NC1(C(=O)O)CCCC1; Aze = O=C(O)[C@@H]1CCN1; Sar = CNCC(=O)O
Keep in mind that pIC50 stands for -log10 of concentration in molar terms.

- Molecule: "CC(C)C[C@H]1C(=O)N[C@@H](C(C)C)C(=O)N(C)[C@@H](C)C(=O)N2CC[C@H]2C(=O)N(C)[C@@H](CC2CCCCC2)C(=O)N(C)CC(=O)N[C@@H](CCc2ccc(C(F)(F)F)c(Cl)c2)C(=O)N2CCC[C@H]2C(=O)NC2(CCCC2)C(=O)N(C)[C@@H](C(C)C)C(=O)N(C)[C@H](C(=O)N2CCCCC2)CC(=O)N1C [Compound 1791] ([NMeL]V[NMeA][Aze][NMeCha][Sar][hPhe(3-Cl-4-CF3)]P[Ac5c][NMeV][NMeD]-Piperidide; lactam N-11)"
  Numeric Readout: 8.52

Attention now turns to another entry.
Query string: For the molecule shown here, CC[C@H](C)[C@@H]1NC(=O)[C@H](CC(C)C)N(C)C(=O)C[C@@H](C(=O)N(C)C)N(C)C(=O)[C@H]([C@@H](C)CC)N(C)C(=O)[C@H](C(C)C)NC(=O)[C@@H]2CCCN2C(=O)[C@H](CCc2ccc(C(F)(F)F)c(Cl)c2)NC(=O)CN(C)C(=O)[C@H](Cc2ccc(C)cc2)N(C)C(=O)[C@@H]2CCN2C(=O)[C@H](C)N(C)C1=O [Compound 784] ([NMeL]I[NMeA][Aze][NMePhe(4-Me)][Sar][hPhe(3-Cl-4-CF3)]PV[NMeI][NMeD]-NMe2; lactam N-11) , give the reported pIC50.
Result string: 8.40
